Test system: p-cymene A-neuron OSN class
Test: net action potential response of A-neuron (blank-subtracted) (spikes/s (Hz)); higher = stronger excitation
Settings: 10 µg on filter paper; neuron: A neuron (large spike amplitude)
Hi, to clarify the labels: satisfied covers net action potential response from 1 upward, not satisfied covers anything below 1.

Answered cases to consult:
[
  {
    "compound": "C[C@@H]1C(=O)C[C@H]2C[C@@H]1C2(C)C [(+)-Isopinocamphone]",
    "assigned category": "not satisfied"
  },
  {
    "compound": "CCCCCC(O)CC (racemic) [(±)-3-Octanol]",
    "assigned category": "satisfied"
  },
  {
    "compound": "CC[C@H]1O[C@]2(C)CCC[C@H]1O2 (racemic) [(±)-exo-Brevicomin]",
    "assigned category": "not satisfied"
  },
  {
    "compound": "CC(C)=CCC/C(C)=C/C=O [Citral (E/Z mix)]",
    "assigned category": "not satisfied"
  },
  {
    "compound": "C=C1CCC2(C(C)C)CC12 (racemic) [(±)-Sabinene]",
    "assigned category": "satisfied"
  },
  {
    "compound": "C=C(C)C1CC=C(C)C(=O)C1 (racemic) [(±)-Carvone]",
    "assigned category": "satisfied"
  },
  {
    "compound": "CC1(C)C2CC=C(CO)C1C2 (racemic) [(±)-Myrtenol]",
    "assigned category": "satisfied"
  },
  {
    "compound": "COc1ccccc1 [Anisole]",
    "assigned category": "satisfied"
  },
  {
    "compound": "C=C(C)[C@@H]1CC=C(C)CC1 [(-)-Limonene]",
    "assigned category": "satisfied"
  },
  {
    "compound": "CC1=CCC2CC1C2(C)C (stereo not drawn) [(-)-α-Pinene]",
    "assigned category": "satisfied"
  }
]

Next compound, please.
In plain terms: is recorded net action potential response at least 1 for C[C@]12CCC[C@](C)(OC1)O2 (racemic) [(±)-Frontalin] ? satisfied
